Every entry's value here was drawn from patent US11180770B2.

# System: HPPD polypeptides
# method notes: coupled HPPD activity assay: turnover and residual turnover in crude extracts
# Type: biochemical, Pseudomonas fluorescens
# applied conditions: absence of Cmpd. 1; high substrate concentration; kinetic changes in absorbance (OD) at 320 nm, 30 min
experimental endpoint: Turnover

{"columns": ["molecule", "observed measurement"],
 "data": [
  ["44 (protein, mutant HPPD polypeptide) MADLYENPMGLMGFEFIEFASPTPGTLEPIFEIMGFTKVATHRSKNVHLYRQGEINLILNNEPNSIASYFAAEHGPSVCGMAFRVKDSQKAYNRALELGAQPIHIDTGPMELNLPAIKGIGGAPLYLIDRFGEGSSIYDIDFVYLEGVERNPVGAGLKVIDHLTHNVYRGRMVYWANFYEKLFNFREARYFDIKGEYTGLTSKAMSAPDGMIRIPLNEESSKGAGQIEEFLMQFNGEGIQHVAFLTDDLVKTWDALKKIGMRFMTAPGDEYYEMLEGRLPDHGEPVDQLQARGILLDGSSVEGDKRLLLQIFSETLMGPVFFEFIQRKGDDGFGPHSFKVLFEQVERDQVRRGVLTAD", 0.036]
]}
